The values you see were collected from patent US20230043863A1.

# assay_summary: Balb/C mouse pharmacokinetics (plasma, colon, ileum)
# Type: in vivo
# run_conditions: male, po, Balb/C mice, p.o. 5 mg/kg, colon, read-out: Mean detention time MRT
measure: MRT (h)
Give bare numbers, in h.

Here is how some compounds turned out for MRT.
INSERT INTO measurements (chemical_structure, number) VALUES
  ('Cc1cc(Nc2nc(N[C@@H]3C[C@H]4CC[C@@H](C3)N4C(=O)CN3CCOCC3)nc3sccc23)n[nH]1', 4.38),
  ('COc1ccc2c(Nc3cc(C)[nH]n3)nc(N[C@@H]3C[C@H]4CC[C@@H](C3)N4CCC#N)nc2c1', 2.29),
  ('Cc1cc(Nc2nc(N(C)[C@@H]3C[C@H]4CCC[C@@H](C3)N4C(=O)CN3CCN(C)CC3)nc3sccc23)n[nH]1', 4.24);

For the next question, use this compound.
INPUT: Fill blank: measured MRT of the compound `Cc1cc(Nc2nc(N[C@@H]3C[C@H]4CC[C@@H](C3)N4CCC#N)nc3cc(N4CCOCC4)ccc23)n[nH]1` is ____.
OUTPUT: 4.59

###

# experimental_system: UniProtKB P52333
# Sequence (P52333 1-1124): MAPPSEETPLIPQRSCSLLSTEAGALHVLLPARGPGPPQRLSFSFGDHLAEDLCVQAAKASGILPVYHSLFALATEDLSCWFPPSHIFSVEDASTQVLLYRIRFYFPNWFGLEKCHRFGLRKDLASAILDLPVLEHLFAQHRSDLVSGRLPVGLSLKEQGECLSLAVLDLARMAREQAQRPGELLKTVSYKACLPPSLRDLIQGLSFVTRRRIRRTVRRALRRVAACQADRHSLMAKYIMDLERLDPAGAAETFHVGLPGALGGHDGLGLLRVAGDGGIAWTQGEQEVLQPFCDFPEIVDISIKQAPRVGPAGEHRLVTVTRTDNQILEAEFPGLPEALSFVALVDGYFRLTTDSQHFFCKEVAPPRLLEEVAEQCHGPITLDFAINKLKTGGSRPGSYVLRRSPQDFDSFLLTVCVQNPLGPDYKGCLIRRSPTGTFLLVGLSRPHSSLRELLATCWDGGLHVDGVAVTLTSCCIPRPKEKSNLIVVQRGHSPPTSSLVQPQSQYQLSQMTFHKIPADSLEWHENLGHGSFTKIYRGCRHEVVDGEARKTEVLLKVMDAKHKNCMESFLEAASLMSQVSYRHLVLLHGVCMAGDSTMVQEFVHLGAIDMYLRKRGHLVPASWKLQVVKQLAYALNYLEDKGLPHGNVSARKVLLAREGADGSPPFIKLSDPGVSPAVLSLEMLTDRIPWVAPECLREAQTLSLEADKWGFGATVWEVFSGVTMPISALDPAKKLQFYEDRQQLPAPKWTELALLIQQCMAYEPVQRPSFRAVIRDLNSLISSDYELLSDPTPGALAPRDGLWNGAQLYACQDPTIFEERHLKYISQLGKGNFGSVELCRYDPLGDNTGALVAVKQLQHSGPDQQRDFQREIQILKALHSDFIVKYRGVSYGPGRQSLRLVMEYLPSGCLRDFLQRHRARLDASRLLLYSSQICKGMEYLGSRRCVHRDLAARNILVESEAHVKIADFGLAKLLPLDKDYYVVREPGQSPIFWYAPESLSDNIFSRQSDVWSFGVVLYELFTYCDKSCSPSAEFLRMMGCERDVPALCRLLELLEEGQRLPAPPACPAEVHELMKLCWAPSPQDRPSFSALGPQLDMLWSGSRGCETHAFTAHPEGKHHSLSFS
Output Met for records whose IC50 is lower than 4 nM, Not met for records at or above 4 nM.

Please review the following examples before continuing.
INSERT INTO assay_data (chemical_structure, experimental_system, classification) VALUES
  ('Cc1cc(Nc2nc(N(C)[C@@H]3C[C@H]4CC[C@@H](C3)N4S(=O)(=O)N3CC(C#N)C3)nc3sccc23)n[nH]1', 'UniProtKB P52333', 'Not met'),
  ('Cc1cc(Nc2nc(N[C@@H]3C[C@H]4CC[C@@H](C3)N4CCC#N)nc3ccccc23)n[nH]1', 'UniProtKB P52333', 'Not met'),
  ('Cc1cc(Nc2nc(N[C@@H]3C[C@H]4CC[C@@H](C3)N4CCC#N)nc3cc(Cl)ccc23)n[nH]1', 'UniProtKB P52333', 'Not met');

INPUT: Is 4 nM strictly greater than the molecule's reported IC50? molecule: `COc1ccc2c(Nc3cc(C)[nH]n3)nc(N[C@@H]3C[C@H]4CCC[C@@H](C3)N4S(=O)(=O)N3CC(C#N)C3)nc2c1`
OUTPUT: Met

INPUT: Is 4 nM strictly greater than the molecule's reported IC50? molecule: `Cc1cc(Nc2nc(N[C@@H]3C[C@H]4CCC[C@@H](C3)N4S(=O)(=O)N3CC(C#N)C3)nc3ccccc23)n[nH]1`
OUTPUT: Met

INPUT: Is 4 nM strictly greater than the molecule's reported IC50? molecule: `Cc1cc(Nc2nc(N[C@@H]3C[C@H]4CCC[C@@H](C3)N4C(=O)c3ccccn3)nc3sccc23)n[nH]1`
OUTPUT: Met

###

# assay_summary: Balb/C mouse pharmacokinetics (plasma, colon, ileum)
# Assay type: in vivo
# run_conditions: male, po, Balb/C mice, p.o. 5 mg/kg, colon, read-out: Curve area AUC0-∞
# Protocol: […] The main pharmacokinetic parameters were calculated with WinNonlin 6.1, and the results of mouse pharmacokinetic experiments are shown in Table 3: […]
measure: AUC(0-inf) (µg·h/mL)
Numbers only, in µg·h/mL.

Here is how some compounds turned out for AUC(0-inf).
INSERT INTO measurements (chemical_structure, number) VALUES
  ('Cc1cc(Nc2nc(N[C@@H]3C[C@H]4CC[C@@H](C3)N4S(=O)(=O)N3CC(C#N)C3)nc3sccc23)n[nH]1', 7.24),
  ('Cc1cc(Nc2nc(N[C@@H]3C[C@H]4CCC[C@@H](C3)N4S(=O)(=O)N3CC(C#N)C3)nc3sccc23)n[nH]1', 7.38),
  ('Cc1cc(Nc2nc(N[C@@H]3C[C@H]4CCC[C@@H](C3)N4C(=O)c3ccncc3)nc3sccc23)n[nH]1', 4.52);

For the next question, use this compound.
INPUT: Fill blank: measured AUC(0-inf) of the compound `Cc1cc(Nc2nc(N[C@@H]3C[C@H]4CC[C@@H](C3)N4CCC#N)nc3cc(-c4cccnc4)ccc23)n[nH]1` is ____.
OUTPUT: 2.18

###

Task for the reader: assign each of the following molecules its reported AUC(0-t).
# assay_summary: Balb/C mouse pharmacokinetics (plasma, colon, ileum)
# Format: in vivo
# run_conditions: male, po, Balb/C mice, p.o. 5 mg/kg, ileum, read-out: Curve area AUC0-t
Give bare numbers, in µg·h/mL.

Please give AUC(0-t), item by item, for the list that follows.
1. Cc1cc(Nc2nc(N[C@@H]3C[C@H]4CC[C@@H](C3)N4C(=O)CN3CCOCC3)nc3sccc23)n[nH]1
2. Cc1cc(Nc2nc(NC3CCN(CCC#N)CC3)nc3sccc23)n[nH]1
3. Cc1cc(Nc2nc(N[C@@H]3C[C@H]4CC[C@@H](C3)N4S(=O)(=O)N3CC(C#N)C3)nc3cc(Cl)ccc23)n[nH]1
4. Cc1cc(Nc2nc(N[C@@H]3C[C@H]4CC[C@@H](C3)N4CCC#N)nc3sc(C)cc23)n[nH]1

OUTPUT:
1: 22.6; 2: 35.3; 3: 49.3; 4: 43

###

# experimental_system: JAK1 (Homo sapiens, UniProt P23458)
# Sequence (P23458 whole entry): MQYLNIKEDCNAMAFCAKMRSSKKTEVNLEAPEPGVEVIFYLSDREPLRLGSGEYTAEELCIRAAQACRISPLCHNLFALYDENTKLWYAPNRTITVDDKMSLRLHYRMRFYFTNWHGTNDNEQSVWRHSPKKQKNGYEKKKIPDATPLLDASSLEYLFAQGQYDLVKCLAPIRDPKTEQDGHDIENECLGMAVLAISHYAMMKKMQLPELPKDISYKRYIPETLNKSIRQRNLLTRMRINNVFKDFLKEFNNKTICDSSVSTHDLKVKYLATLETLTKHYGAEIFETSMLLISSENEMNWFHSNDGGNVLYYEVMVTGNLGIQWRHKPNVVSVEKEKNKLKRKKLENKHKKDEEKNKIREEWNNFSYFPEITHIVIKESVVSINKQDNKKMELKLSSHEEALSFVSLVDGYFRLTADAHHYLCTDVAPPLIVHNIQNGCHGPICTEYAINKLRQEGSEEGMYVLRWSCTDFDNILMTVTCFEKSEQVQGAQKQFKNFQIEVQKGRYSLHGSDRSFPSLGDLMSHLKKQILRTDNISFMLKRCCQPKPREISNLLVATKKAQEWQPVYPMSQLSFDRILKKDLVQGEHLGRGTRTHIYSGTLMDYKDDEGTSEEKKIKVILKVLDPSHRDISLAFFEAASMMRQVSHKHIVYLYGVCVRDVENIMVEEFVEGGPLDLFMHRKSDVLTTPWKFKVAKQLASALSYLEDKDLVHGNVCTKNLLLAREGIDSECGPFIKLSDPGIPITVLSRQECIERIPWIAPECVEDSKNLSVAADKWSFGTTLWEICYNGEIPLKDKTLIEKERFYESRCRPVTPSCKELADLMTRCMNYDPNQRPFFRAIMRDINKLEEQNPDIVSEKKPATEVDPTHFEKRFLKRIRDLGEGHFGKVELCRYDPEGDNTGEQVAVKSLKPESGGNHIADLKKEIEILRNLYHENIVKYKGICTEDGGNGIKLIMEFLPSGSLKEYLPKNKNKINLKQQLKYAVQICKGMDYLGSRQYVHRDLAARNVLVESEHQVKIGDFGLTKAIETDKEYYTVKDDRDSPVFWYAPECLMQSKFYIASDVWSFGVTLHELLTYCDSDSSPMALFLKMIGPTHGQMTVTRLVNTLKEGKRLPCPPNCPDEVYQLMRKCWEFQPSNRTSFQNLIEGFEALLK
# assay_summary: JAK kinase activity inhibition, TR-FRET (JAK1)
# Assay type: biochemical
# run_conditions: TR-FRET kinase assay
Output class 1 for records whose IC50 is lower than 0.8 nM, class 0 for records at or above 0.8 nM.

Please review the following examples before continuing.
INSERT INTO results (chemical_structure, experimental_system, classification) VALUES
  ('Cc1cc(Nc2nc(N[C@@H]3C[C@H]4CC[C@@H](C3)N4CCC#N)nc3ccsc23)n[nH]1', 'JAK1 (Homo sapiens, UniProt P23458)', 'class 1'),
  ('CN(c1nc(Nc2cc(CO)[nH]n2)c2ccsc2n1)[C@@H]1C[C@H]2CCC[C@@H](C1)N2S(=O)(=O)N1CC(C#N)C1', 'JAK1 (Homo sapiens, UniProt P23458)', 'class 1'),
  ('Cc1cc(Nc2nc(N[C@@H]3C[C@H]4CC[C@@H](C3)N4CCC#N)nc3cc(Cl)ccc23)n[nH]1', 'JAK1 (Homo sapiens, UniProt P23458)', 'class 0'),
  ('COc1cncc(-c2ccc3c(Nc4cc(C)[nH]n4)nc(N[C@@H]4C[C@H]5CC[C@@H](C4)N5CCC#N)nc3c2)c1', 'JAK1 (Homo sapiens, UniProt P23458)', 'class 1'),
  ('Cc1cc(Nc2nc(N[C@@H]3C[C@H]4CC[C@@H](C3)N4CCC#N)c3ccccc3n2)n[nH]1', 'JAK1 (Homo sapiens, UniProt P23458)', 'class 0'),
  ('Cc1cc(Nc2nc(N[C@@H]3C[C@H]4CCC[C@@H](C3)N4Cc3ccccn3)nc3sccc23)n[nH]1', 'JAK1 (Homo sapiens, UniProt P23458)', 'class 1'),
  ('Cc1cc(Nc2nc(N(C)[C@@H]3C[C@H]4CC[C@@H](C3)N4C(=O)CN3CCOCC3)nc3sccc23)n[nH]1', 'JAK1 (Homo sapiens, UniProt P23458)', 'class 0'),
  ('Cc1cc(Nc2nc(N[C@@H]3C[C@@H]4CN(CCC#N)C[C@@H]4C3)nc3ccsc23)n[nH]1', 'JAK1 (Homo sapiens, UniProt P23458)', 'class 1');

INPUT: Is 0.8 nM strictly greater than the compound's reported IC50? compound: `N#CCCN1[C@@H]2CCC[C@H]1C[C@H](Nc1nc(Nc3ncc(CO)s3)cc3ncccc13)C2`
OUTPUT: class 1

INPUT: Is 0.8 nM strictly greater than the compound's reported IC50? compound: `Cc1cc(Nc2nc(N[C@@H]3C[C@H]4CCC[C@@H](C3)N4C(=O)CN3CCN(C)CC3)nc3sccc23)n[nH]1`
OUTPUT: class 1

INPUT: Is 0.8 nM strictly greater than the compound's reported IC50? compound: `N#CCCN1[C@@H]2CC[C@H]1C[C@H](Nc1nc(Nc3ncc(C#N)s3)cc3ncccc13)C2`
OUTPUT: class 0

INPUT: Is 0.8 nM strictly greater than the compound's reported IC50? compound: `Cc1cc(Nc2nc(N[C@@H]3C[C@H]4CC[C@@H](C3)N4S(=O)(=O)N3CC(C#N)C3)nc3cccnc23)n[nH]1`
OUTPUT: class 1
